Provenance of the data: the supplement of paper PMC9112550

System: Escherichia coli TOP10;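 also: peptides expressed intracellularly from a pBAD plasmid library in pooled LB shake-flask culture, induced with 0.3% L-arabinose, DNA abundance read by NGS, three biological replicates, DESeq2 with apeglm shrinkage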
experiment.summary: shrunken log2 fold change of peptide-encoding DNA abundance (4.5 h post-induction vs induction); higher = less antimicrobial activity (less host growth inhibition)
condition.parameters: time post-induction: 4.5 h; library: site-saturation at positions 5, 18, 19, 20
Returns one of y or n; y when shrunken log2 fold change is >= -0.08.

sequence.string	label.value
RRIRKRPPRLPRPRPRPIDRPRP	y
RRIRNRPPRLPRPRPRPSYPPRP	y
RRIRTRPPRLPRPRPRPHNHPRP	n
RRIRVRPPRLPRPRPRPPRDPRP	y
RRIRERPPRLPRPRPRPYSGPRP	n
RRIRARPPRLPRPRPRPTEIPRP	y
RRIRFRPPRLPRPRPRPDMNPRP	n
RRIRCRPPRLPRPRPRPNSNPRP	n
